# Test system: 20-HETE formation (CYP4) in HLM
# assayComment: IC50 determination, 20-HETE formation in HLM
# Type: biochemical, human
# setupConditions: HLM 300 μg/ml, AA 100 μM, 12 concentrations
endpointLabel: IC50 (µM)
Answers are plain numbers, in µM.

O=C(c1ccc(C2CCN(c3cn[nH]c3)CC2)c(F)c1)N1CCCC1 ... 0.0474
c1ccc(OC2CCN(c3cn[nH]c3)CC2)cc1 ... 0.22
c1ccc(CC2CCN(c3cn[nH]c3)CC2)cc1 ... 0.05
COc1ccc(C2CCN(c3cn[nH]c3)CC2)c(F)c1 ... 0.08
Clc1ccc(CC2CCN(c3cn[nH]c3)CC2)cc1 ... 0.017

Briefly, IC50 measured for COc1ccc(C2CCN(c3cn[nH]c3)CC2)cc1 : 0.07

----------
Give measured Stability HLM % @ 30 min for each item. Keep answers brief.
# assayComment: HLM stability determination
# Format: in vitro ADME, human
# setupConditions: HLM 500 μg/ml, 1 μM compound, NADPH, relative to 0 min
Answers are plain numbers, in %.

Field: example entries. Status: answers known.
O=C1CCCN1Cc1ccc(C2CCN(c3cn[nH]c3)CC2)cc1 ... 91
Cc1ccc(C2CCN(c3cn[nH]c3)CC2)cc1 ... 92

Would you be so kind as to report Stability HLM % @ 30 min for each listed record?
1. COc1cncc(C2CCN(c3cn[nH]c3)CC2)c1
2. c1ccc(C2CCN(c3cn[nH]c3)CC2)cc1

Result block:
98
100

----------
Give measured HLM % inh. @ 500 nM for each item. Keep answers brief.
# Test system: 20-HETE formation (CYP4) in HLM
# assayComment: Inhibition of 20-HETE formation at 250 or 500 nM in HLM microsomal incubations
# Format: biochemical, human
# setupConditions: 500 nM compound; HLM 300 μg/ml, AA 100 μM, 20 min
One number for each entry, in %.

COc1cc(C2CCN(c3cn[nH]c3)CC2)ccc1F ... 61.10

Would you be so kind as to report HLM % inh. @ 500 nM for each listed record?
1. c1cnc(C2CCN(c3cn[nH]c3)CC2)nc1
2. COc1ccc(C2CCN(c3cn[nH]c3)CC2)cc1
3. Clc1cccc(CC2CCN(c3ccn[nH]3)CC2)c1
4. CS(=O)(=O)Nc1ccc(C2CCN(c3cn[nH]c3)CC2)cc1
5. COc1ccccc1C1CCN(c2cn[nH]c2)CC1
6. O=S1(=O)Cc2ccc(C3CCN(c4cn[nH]c4)CC3)cc2C1

Result block:
1: 0.00; 2: 73.10; 3: 40.4; 4: 30.5; 5: 0.00; 6: 90.00

Would you be so kind as to report HLM % inh. @ 500 nM for each listed record?
1. c1cnc(N2CCN(c3cn[nH]c3)CC2)nc1
2. COCc1ccc(C2CCN(c3ccn[nH]3)CC2)cc1
3. c1ccc(C2CCN(c3cn[nH]c3)CC2)cc1
4. Cc1n[nH]cc1N1CCC(c2ccccc2)CC1

Result block:
1: 0.00; 2: 56.40; 3: 78.80; 4: 0.00

Would you be so kind as to report HLM % inh. @ 500 nM for each listed record?
1. Cc1ccc(C2CCN(c3cn[nH]c3)CC2)cc1
2. Cc1cc(N2CCC(c3ccccc3)CC2)[nH]n1
3. Fc1ccccc1C1CCN(c2cn[nH]c2)CC1
4. CC(=O)N(C)c1ccc(C2CCN(c3cn[nH]c3)CC2)c(F)c1
5. CCS(=O)(=O)c1ccc(C2CCN(c3ccn[nH]3)CC2)cc1
6. c1ccc(C2CCN(c3ccn[nH]3)CC2)cc1
7. c1ccc(SC2CCN(c3ccn[nH]3)CC2)cc1

Result block:
1. 73.80
2. 0.00
3. 77.00
4. 85.6
5. 67.40
6. 47.40
7. 6.00

Would you be so kind as to report HLM % inh. @ 500 nM for each listed record?
1. COc1ccc(C2CCN(c3cn[nH]c3)CC2)cn1
2. COc1ccc(C2CCN(c3cn[nH]c3)CC2)cc1F

Result block:
1. 59.00
2. 85.00

Just for reference, patent US12479816B2 is where these values come from.
